Each recorded value in this set is attributed to patent US10716768B2.

System: Tet-On Aβ-GFP Flp-In 293 cells
assay-details: Cytotoxicity of induced cells, propidium iodide staining and flow cytometer
Assay type: cell-based, human
protocol-conditions: induced cells, PI staining, flow cytometer (FIG. 3C)
measurement-type: pIC50
Answers are plain numbers, as −log10 of the molar value.

Query :: Could you tell me which pIC50 is on file for C=CC(C)(C)c1cc(/C=C/C(=O)c2ccc(O)cc2)c(OC)cc1O [licochalcone A, reference compound] ?
Result :: 4.21

###

assay-details: Cytotoxicity of induced cells, propidium iodide staining and flow cytometer
Type: cell-based, human
protocol-conditions: human
Please provide measured IC50 for the entries that follow.
One number for each entry, in µM.

For orientation, consider the following solved cases.
>  <chemical-structure>
COc1ccc(O)c(/C=C/C(=O)c2ccccc2)c1

>  <result-number>
57.5

$$$$
>  <chemical-structure>
Cc1ccc(/C=C/C(=O)c2c(O)c3ccccc3oc2=O)cc1

>  <result-number>
80.6

$$$$
>  <chemical-structure>
COc1ccc(C(=O)/C=C/c2cc(Br)ccc2O)cc1

>  <result-number>
47.7

$$$$
>  <chemical-structure>
O=C(c1ccccc1)c1cc2c(O)cccc2oc1=O

>  <result-number>
95.1

$$$$

Query :: Could you tell me which IC50 is on file for COc1cccc(/C=C/C(=O)c2ccc(O)cc2)c1O ?
Result :: 60.9

###

assay-details: MTT cytotoxicity test, un-induced cells
Type: cell-based, human
protocol-conditions: human
Protocol: This experiment was to test the toxicity of compounds (I-1), (I-2), (I-3), (I-4), and (I-5) to un-induced Tet-On Aβ-GFP Ftp-In 293 and SH-SY5Y cells. Un-induced Tet-On Aβ-GFP Flp-In 293 and SH-SY5Y cells were treated with compounds (I-1), (I-2), (I-3), (I-4), and (I-5) in different concentrations from 0.1 to 100 μM for 24 hours, followed by conducting MTT assay to test the cytotoxicity of the compounds. […]
Please provide measured IC50 at 24 h for the entries that follow.

Dear reader, for each entry below, please note its IC50 at 24 h.
1. O=C(c1ccccc1)c1cc2c(O)cccc2oc1=O
2. COc1ccc(O)c(/C=C/C(=O)c2ccccc2)c1
3. COc1cc(/C=C/C(=O)CC(=O)/C=C/c2ccc(O)c(OC)c2)ccc1O [curcumin, reference compound]

Result ::
> 100 µM
10 to 51 µM
> 10 µM

###

Test system: un-induced Tet-On Aβ-GFP Flp-In 293 and SH-SY5Y cells
assay-details: MTT cytotoxicity test, un-induced cells
Format: cell-based, human
protocol-conditions: MTT, 24 hours; range over un-induced Flp-In 293 (FIG. 1A) and SH-SY5Y (FIG. 1B) cells
measurement-type: IC50

Query :: Fill in the recorded IC50 for this compound, with un-induced Tet-On Aβ-GFP Flp-In 293 and SH-SY5Y cells as test system: C=CC(C)(C)c1cc(/C=C/C(=O)c2ccc(O)cc2)c(OC)cc1O [licochalcone A, reference compound]
Result :: 47 to 51 µM

###

assay-details: MTT cytotoxicity test, un-induced cells
Type: cell-based, human
protocol-conditions: human
measurement-type: IC50 at 24 h

For orientation, consider the following solved cases.
>  <chemical-structure>
COc1cccc(/C=C/C(=O)c2ccc(O)cc2)c1O

>  <result>
45 to 71 µM

$$$$
>  <chemical-structure>
Cc1ccc(/C=C/C(=O)c2c(O)c3ccccc3oc2=O)cc1

>  <result>
≥ 55 µM

$$$$

// next entry
Query :: Could you tell me which IC50 at 24 h is on file for COc1ccc(C(=O)/C=C/c2cc(Br)ccc2O)cc1 ?
Result :: 8 to 51 µM
